Test: 1H NMRD profiles (water proton relaxivity)
Assay type: physicochemical
Details: 25° C., pH 6.9, fits of NMRD profile and 17O NMR
From the text: Measuring the relaxation rates of an abundant nuclear species as a function of the magnetic field over a wide range is called relaxometry. A relaxometry profile is a plot of the nuclear magnetic relaxation rate, usually 1/T1, as a function of the Larmor frequency or the magnetic field. […] With the help of NMRD profiles, ^17O NMR measurements, and the Soloman-Bloemnergen-Morgan theory, several important parameters, such as TM, TR, TV, Δ^2 and rH, can be measured. […]
Reported q is given for each of the following compounds.

compound: O=C([O-])CN1CCNCCN(CC(=O)[O-])CCN(CC(=O)[O-])CC1.[Gd+3] [Gd-DO3A, reference compound]
q: 2
--
compound: O=C([O-])CN1CCN(CC(=O)[O-])CCN(CC(=O)N2CCOCCOCCN(Cc3ccc4ccccc4n3)CCOCCOCC2)CCN(CC(=O)[O-])CC1.[Gd+3]
q: 1
--
compound: O=C([O-])CN1CCN(CCN2CCOCCOCCOCCOCC2)CCN(CC(=O)[O-])CCN(CC(=O)[O-])CC1.[Gd+3]
q: 2
--
compound: O=C([O-])CN1CCN(CCOCC2COCCOCCOCCOCCO2)CCN(CC(=O)[O-])CCN(CC(=O)[O-])CC1.[Gd+3] (stereo not drawn)
q: 2
--
compound: O=C([O-])CN1CCN(CC(=O)[O-])CCN(CC(=O)O)CCN(CC(=O)[O-])CC1.[Gd+3] [Gd-DOTA, reference compound]
q: 1
--
compound: O=C([O-])CN(CCN(CC(=O)[O-])CC(=O)O)CCN(CC(=O)[O-])CC(=O)O.[Gd+3] [Gd-DTPA, reference compound]
q: 1

Reference source for all entries: patent US20060057071A1
